B1: RSPH3 (parent)
chain: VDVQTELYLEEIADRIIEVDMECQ

Variants of: B1
Method: protein stability index of a GFP-peptide fusion (GPS, HEK-293T) (PSI 1-6); higher = more stable;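 note: lentivirally expressed fusions sorted by FACS into six bins by GFP to DsRed ratio, PSI derived from sequencing read proportions per bin multiplied by bin number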
Conditions: c terminus: a fixed tail appended
Assign class by protein stability index: not lower than 3 means yes (1); lower than 3 means no (0).

As a guide, the following entries are already answered.
Mutation notation	Class name
V1D	yes (1)
D14N	no (0)
R15Y	no (0)

Is protein stability index at least 3? Consider Q4T
no (0)

Is protein stability index at least 3? Consider C23W
no (0)

Is protein stability index at least 3? Consider L7H
yes (1)

Is protein stability index at least 3? Consider Q4W
no (0)

Is protein stability index at least 3? Consider I17R
yes (1)
